System: Bloodstream form trypomastigotes of T. b. brucei strain 427 (WT)
Experiment: Resazurin-based susceptibility assay, wild-type T. b. brucei
Format: cell-based
Settings: Trypanosoma brucei, BSF trypomastigotes strain 427, n = 3
Labelling: EC50 reported below 8 µM becomes YES; at or above becomes NO.

// below: answered compounds
compound | cat
N=C(N)c1ccc(/N=N/Nc2ccc(C(=N)N)cc2)cc1 [diminazene, reference compound] | YES
CC(=O)O.Cc1cc(O)cc(O)c1C(=O)NCCCCCCOc1ccc(C(=N)N)cc1 | NO
Cc1cc(O)cc(O)c1C(=O)NCCCCCCCCCCCCOc1ccc(C(=N)NO)cc1 | NO
CC(=O)O.Cc1cc(O)cc(O)c1C(=O)NCCCCCCCCCCCCOc1ccc(N=C2NCCN2)cc1 | YES
N=C(N)c1ccc(OCCCCCOc2ccc(C(=N)N)cc2)cc1 [pentamidine, reference compound] | YES
Cc1cc(O)cc(O)c1C(=O)NCCCCCCOc1ccc(C(=N)NO)cc1 | NO

As a next step, examine the compound that follows.
[in] EC50 strictly < 8 µM for this compound? `Cc1cc(O)cc(O)c1C(=O)NCCCOc1ccc(C#N)cc1`
[out] NO
